# Procedure Details: Selectivity ratio of IC50 for human reticulocyte 15-lipoxygenase to IC50 for human 5-lipoxygenase
Result Type: ratio

>  <Molecule>
CC1(C)CCC[C@]2(C)[C@H]3C=C4C=C(O)C(=O)C=C4O[C@@]3(C)CC[C@@H]12 [PUUPEHENONE]

>  <Measured Number>
9

$$$$
>  <Molecule>
CC1(C)CCC[C@]2(C)[C@H]3C=C4C(=CC(=O)[C@@H]4O)O[C@@]3(C)CC[C@@H]12

>  <Measured Number>
3

$$$$
>  <Molecule>
CC1(C)CCC[C@]2(C)C3=CC4=CC(=O)C(=O)C=C4O[C@@]3(C)CC[C@@H]12 [PUUPEHEDIONE]

>  <Measured Number>
1.5

$$$$
>  <Molecule>
CC1=C(CC/C(C)=C/CC/C(C)=C/Cc2cc(O)ccc2O)C(C)(C)CCC1 [JASPAQUINOL]

>  <Measured Number>
42

$$$$

The measurements presented in this section are drawn from ChEMBL document CHEMBL1165846.
